meta.source: PubChem BioAssay AID1963874

# Test system: 253994-281-T-J1-PDC KRAS-mutant spheroids with HUVEC/MSC, viability
# testProtocol: Anticancer human tumor 253994-281-T-J1-PDC patient-derived colorectal carcinoma cell line growth inhibition [KRAS2]
# conditionLabel: curve of first compound; second compound 1 µM
# IC50 values compiled below

{"molecule": "CCN1CCN(Cc2ccc(Nc3ncc(F)c(-c4cc(F)c5nc(C)n(C(C)C)c5c4)n3)nc2)CC1 + C=CC(=O)N1CCN(c2nc(=O)n(-c3c(C)ccnc3C(C)C)c3nc(-c4c(O)cccc4F)c(F)cc23)C(C)C1", "experimentalSystem": "253994-281-T-J1-PDC KRAS-mutant spheroids with HUVEC/MSC, viability", "IC50": "> 1 µM"}
{"molecule": "CC(C)n1nc(-c2ccc3oc(N)nc3c2)c2c(N)ncnc21 + C=CC(=O)N1CCN(c2nc(OCC3CCCN3C)nc3c2CCN(c2cccc4cccc(C)c24)C3)CC1CC#N", "experimentalSystem": "253994-281-T-J1-PDC KRAS-mutant spheroids with HUVEC/MSC, viability", "IC50": "> 0.1 µM"}
{"molecule": "O=C(c1cc(Cc2n[nH]c(=O)c3ccccc23)ccc1F)N1CCN(C(=O)C2CC2)CC1 + CNCc1ccccc1-c1csc(C(C)Nc2nc(C)nc3cc(OC)c(OC)cc23)c1", "experimentalSystem": "253994-281-T-J1-PDC KRAS-mutant spheroids with HUVEC/MSC, viability", "IC50": "> 10 µM"}

Data point: COc1cc(Nc2ncc3c(n2)-c2ccc(Cl)cc2C(c2c(F)cccc2OC)=NC3)ccc1C(=O)O + C=CC(=O)N1CCN(c2nc(OCC3CCCN3C)nc3c2CCN(c2cccc4cccc(C)c24)C3)CC1CC#N ; IC50 = > 10 µM

----------
# System: 253994-281-T-J1-PDC KRAS-mutant spheroids with HUVEC/MSC, viability
# testProtocol: Anticancer human tumor 253994-281-T-J1-PDC cell line growth inhibition [KRAS2];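 further: spheroids exposed to agents for seven days before readout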;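 on viability, T/C: percent of DMSO vehicle control viability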
# conditionLabel: second compound 1 µM; first compound 0.1 µM; stronger effect = lower value
parameterMeasured: viability, T/C

// solved cases for viability, T/C follow
{"molecule": "CC1OCC2(CCN(c3cnc(Sc4ccnc(N)c4Cl)c(N)n3)CC2)C1N (stereo unspecified) + C=CC(=O)N1CCN(c2nc(OCC3CCCN3C)nc3c2CCN(c2cccc4cccc(C)c24)C3)CC1CC#N", "viability, T/C": "82.3%"}
{"molecule": "COc1cc(Nc2ncc3c(n2)-c2ccc(Cl)cc2C(c2c(F)cccc2OC)=NC3)ccc1C(=O)O + C=CC(=O)N1CCN(c2nc(OCC3CCCN3C)nc3c2CCN(c2cccc4cccc(C)c24)C3)CC1CC#N", "viability, T/C": "39.5%"}
{"molecule": "Cn1nccc1Nc1nccc(-c2cc3c(s2)C(C)(C)N(CCN2CCOCC2)C3=O)n1 + CNCc1ccccc1-c1csc(C(C)Nc2nc(C)nc3cc(OC)c(OC)cc23)c1", "viability, T/C": "73.2%"}

viability, T/C reported for this molecule COC(=O)c1ccc2c(C(=Nc3ccc(N(C)C(=O)CN4CCN(C)CC4)cc3)c3ccccc3)c(O)[nH]c2c1 + C=CC(=O)N1CCN(c2nc(=O)n(-c3c(C)ccnc3C(C)C)c3nc(-c4c(O)cccc4F)c(F)cc23)C(C)C1 : 108%

The molecule listed as CC(C)NCC(C(=O)N1CCN(c2ncnc3c2C(C)CC3O)CC1)c1ccc(Cl)cc1 (stereo unspecified) + C=CC(=O)N1CCN(c2nc(OCC3CCCN3C)nc3c2CCN(c2cccc4cccc(C)c24)C3)CC1CC#N has a reported viability, T/C of 101%

Please fill in: viability, T/C reported for CN(C)C/C=C/C(=O)Nc1cc2c(Nc3ccc(F)c(Cl)c3)ncnc2cc1O[C@H]1CCOC1 + COc1cc2nc(C)nc(NC(C)c3cc(N)cc(C(F)(F)F)c3)c2cc1OC1CCOC1 = 69.8%
